The reported measurements were obtained from patent US20160075653A1.

Documented logP across a set of compounds
Assay: Measurement of log P values by HPLC on reversed phase columns (methods [a] pH 2.3, [b] pH 2.7, [c] pH 7.8)
Assay type: physicochemical
Conditions: HPLC on reversed phase column, method [c], pH 7.8
Protocol: Measurement of log P-Values: Measurement of log P Values was Performed According EEC Directive 79/831 Annex V.A8 by HPLC (High Performance Liquid Chromatography) on reversed phase columns with the following methods: ^[a] […]

Example entries and their recorded answers appear below.
CS(=O)(=O)c1ccccc1C(=O)N[C@@H]1C[C@@H]1c1ccc(Cl)cc1Cl (relative stereo) [Compound 609] :: 2.61^[c];
O=C(N[C@@H]1CC[C@@H]1c1ccc(Br)cc1C(F)(F)F)c1nccnc1C(F)(F)F (relative stereo) [Example 659] :: 3.62^[c];

Entry CC1=C(C(=O)N[C@@H]2C[C@@H]2c2ccc(Cl)cc2Cl)S(=O)(=O)CCO1 (relative stereo) [Example 614] , logP reported as 2.33^[c];

Entry O=C(NC1CCC1c1ccccc1C(F)(F)F)c1nccnc1C(F)(F)F (stereo not shown) [Example 687] , logP reported as 3.25^[c];

Entry O=C(N[C@@H]1C[C@@H]1c1ccc(Cl)cc1Cl)c1ccc(Cl)cc1Cl (relative stereo) [Example 613] , logP reported as 3.76^[c];

Entry O=C(NC1CCC1c1ccccc1C(F)(F)F)c1nccnc1C(F)(F)F (stereo not shown) [Compound 684] , logP reported as 3.10^[c];

Entry O=C(NC1CCC1c1ccccc1C(F)(F)F)c1ncccc1Br (stereo not shown) [Example 691] , logP reported as 3.27^[c];

Entry CC1=C(C(=O)N[C@@H]2C[C@@H]2c2ccc(Cl)cc2Cl)SCCO1 (relative stereo) [Example 615] , logP reported as 3.01^[c];

Entry O=C(NC1CCC1c1ccccc1C(F)(F)F)c1ncccc1Br (stereo not shown) [Example 605] , logP reported as 3.10^[c];

Entry O=C(N[C@@H]1CC[C@H]1c1ccc(Br)cc1C(F)(F)F)c1nccnc1C(F)(F)F (relative stereo) [Example 660] , logP reported as 3.87^[c];

Entry O=C(N[C@@H]1CC[C@H]1c1ccc(Br)cc1C(F)(F)F)c1ccccc1C(F)(F)F (relative stereo) [Example 655] , logP reported as 4.19^[c];

Entry O=C(NC1CCC1c1ccccc1C(F)(F)F)c1nccnc1C(F)(F)F (stereo not shown) [Example 604] , logP reported as 3.10^[c];

Entry O=C(N[C@@H]1C[C@@H]1c1ccc(Cl)cc1Cl)c1ncccc1Br (relative stereo) [Compound 608] , logP reported as 2.99^[c];

Entry CC1=C(C(=O)NC2CCC2c2ccccc2C(F)(F)F)S(=O)(=O)CCO1 (stereo not shown) [Example 606] , logP reported as 2.45^[c];

Entry O=C(NC1CCC1c1ccccc1C(F)(F)F)c1ncccc1Br (stereo not shown) [Compound 695] , logP reported as 3.10^[c];

Entry O=C(N[C@@H]1C[C@@H]1c1ccc(Cl)cc1Cl)c1cncnc1C(F)(F)F (relative stereo) [Example 610] , logP reported as 2.87^[c];

----------
Documented logP across a set of compounds
test: Measurement of log P values by HPLC on reversed phase columns (methods [a] pH 2.3, [b] pH 2.7, [c] pH 7.8); assay type: physicochemical; details: HPLC reversed phase, method [b] (pH 2.7)

O=C(N[C@@H]1CC[C@@H]1c1cc(F)ccc1C(F)(F)F)c1ccccc1[N+](=O)[O-] (relative stereo) :: 3.07^[b]
Cn1cc(C(=O)N[C@@H]2CCCC[C@H]2c2ccccc2C(F)(F)F)c(C(F)F)n1 (relative stereo) :: 3.56^[b]
O=C(NC1CCCCC1c1ccc(Cl)cc1)c1cccnc1C(F)(F)F (centres unmarked) :: 3.31^[b]
O=C(N[C@@H]1CCC[C@@H]1c1ccccc1F)c1ccc(I)s1 (relative stereo) :: 3.70^[b]

Please find the next compound below.
Entry O=C(NC1CCCC1c1ccccc1C(F)(F)F)c1cccnc1Cl (centres unmarked) , logP reported as 2.90^[b]
